Origin of measurements: paper PMC7826789

- Test system: STK39;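 note: KINOMEscan scanMAX binding as percent activity remaining versus control; lower means stronger binding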
- Run parameters: Compound Concentration (nM):1000

{"Compound": "CCc1ccc(Oc2nccc(-c3c(-c4ccc(F)cc4)ncn3C3CCNCC3)n2)cc1 [SB-242719]", "System": "STK39", "Percent Control [%]": 81}
{"Compound": "COc1cc(N2CCN(C(C)C)CC2)ccc1Nc1nc(Nc2ccc(F)cc2C(=O)NC[C@@H](O)CO)c2cc[nH]c2n1 [GSK1392956A]", "System": "STK39", "Percent Control [%]": 65}
{"Compound": "CC1=C(C(=O)Nc2ccc3[nH]ncc3c2)C(c2ccc3ccccc3c2)CC(=O)N1 (centres unmarked) [GSK270822A]", "System": "STK39", "Percent Control [%]": 71}
{"Compound": "COc1ccc2cc(-c3c(-c4ccncc4)nc(-c4ccc(S(C)(=O)=O)cc4C)n3C)ccc2c1 [SB-633825]", "System": "STK39", "Percent Control [%]": 66}
{"Compound": "C[C@@H](Oc1cc(-n2cnc3ccc(OC4CCN(C)CC4)cc32)sc1C(N)=O)c1ccccc1Cl [GSK579289A]", "System": "STK39", "Percent Control [%]": 83}
{"Compound": "NS(=O)(=O)c1ccc(N/N=C2\\C(=O)Nc3ccc(C(=O)NCc4ccncc4)cc32)cc1 [GW300657X]", "System": "STK39", "Percent Control [%]": 74}
{"Compound": "Cl.O=S1CCN(Cc2ccc(-c3ccc4ncnc(Nc5ccc(OCc6ccccc6)c(F)c5)c4c3)o2)CC1 [GW576924A]", "System": "STK39", "Percent Control [%]": 100}
{"Compound": "C/C(Nc1ccc(S(N)(=O)=O)cc1)=C1/C(=O)Nc2ccccc21 [GW335962X]", "System": "STK39", "Percent Control [%]": 64}
{"Compound": "CCS(=O)(=O)c1ccc(OC)c(Nc2ncc(-c3cccc(F)c3)o2)c1 [GW621970X]", "System": "STK39", "Percent Control [%]": 100}
{"Compound": "COc1ccc2c(-c3ccnc(Nc4cccc(OC(F)(F)F)c4)n3)cnn2n1 [GW810372X]", "System": "STK39", "Percent Control [%]": 86}
{"Compound": "NS(=O)(=O)c1ccc(Nc2ncc(-c3ccccc3)o2)cc1 [GW572399X]", "System": "STK39", "Percent Control [%]": 100}
{"Compound": "COc1ccc(COc2ccc(Cc3cnc(N)nc3N)cc2OC)cc1 [GW632580X]", "System": "STK39", "Percent Control [%]": 91}
{"Compound": "O=C(Nc1n[nH]c2nc(-c3ccc(O)cc3)c(Br)cc12)C1CC1 [SB-725317]", "System": "STK39", "Percent Control [%]": 99}
{"Compound": "COc1ccc2[nH]c3c4[nH]c5ccc(OC)cc5c4c4c(c3c2c1)C(=O)NC4=O [GW296115X]", "System": "STK39", "Percent Control [%]": 100}
{"Compound": "CN1CCN(C(=O)c2ccc(NC(=O)Nc3ccc(N(C)c4ccnc(Nc5ccc(CS(C)(=O)=O)cc5)n4)cc3)cc2)CC1.Cl [GW830263A]", "System": "STK39", "Percent Control [%]": 79}
{"Compound": "O=C1Nc2ccc(C(=O)c3ccco3)cc2C1=Cc1cc(Cl)c(O)c(Cl)c1 [GW406108X]", "System": "STK39", "Percent Control [%]": 81}
{"Compound": "Cl.c1ccc(Cc2nc3ccc(Nc4ncnc5ccccc45)cc3[nH]2)cc1 [GR269666A]", "System": "STK39", "Percent Control [%]": 100}
{"Compound": "CCn1c(-c2nonc2N)nc2c(C#CC(C)(C)O)nc(OCCNC)cc21.Cl [GSK949675]", "System": "STK39", "Percent Control [%]": 98}
{"Compound": "Cl.O=C(O[C@H]1CN[C@H](C#Cc2cc3ncnc(Nc4ccc5c(cnn5Cc5ccccc5)c4)c3s2)C1)N1CCOCC1 [GSK200398A]", "System": "STK39", "Percent Control [%]": 83}
{"Compound": "CCS(=O)(=O)c1ccc(OC)c(Nc2ncc(-c3cccc(OC)c3)o2)c1 [GW580509X]", "System": "STK39", "Percent Control [%]": 100}
{"Compound": "NS(=O)(=O)c1ccc(N/N=C2\\C(=O)Nc3ccc(C(=O)NCCc4c[nH]cn4)cc32)cc1 [GW300660X]", "System": "STK39", "Percent Control [%]": 100}
{"Compound": "COc1cc2ncnc(Nc3ccc4c(cnn4Cc4ccccc4)c3)c2cc1OC.Cl [GW282449A]", "System": "STK39", "Percent Control [%]": 100}
{"Compound": "COc1cc(C)c(N(C)C(=O)CN(C)C)cc1Nc1nc(Nc2cccc(F)c2C(N)=O)c2cc[nH]c2n1 [GSK2219385]", "System": "STK39", "Percent Control [%]": 81}
